Tested on: Plasmodium berghei
Assay: Screen against P. berghei liver stage (PbLuc), transformed with Luciferase, at 10uM
Assay type: functional, HepG2
Conditions: tested at 10 uM
Out of some 69,000 compounds screened, about 8,600 (12%) showed an effect of 50% or more. This is one part of a sample in which strong results are shown more often than they occur.

[
  {
    "compound": "Cc1cs/c(=N\\C(=O)c2c3c(nc4onc(C)c24)CCC3)[nH]1",
    "INHIBITION, %": 24.1
  },
  {
    "compound": "O=C(c1cscn1)N1CC[C@@H]2[C@@H]1CCN2C1CCOCC1",
    "INHIBITION, %": -23.1
  },
  {
    "compound": "Cc1cc(O)c(OCC(=O)/N=c2\\[nH]c(C)c(C)s2)cn1",
    "INHIBITION, %": -69.4
  },
  {
    "compound": "CC(=O)Nc1nc(C(=O)NC(C)c2ccc(F)cc2)cs1 (stereo unspecified)",
    "INHIBITION, %": -45.2
  },
  {
    "compound": "CN(Cc1ccccc1)CC(O)Cn1cnc2cc(F)ccc2c1=O (stereo unspecified)",
    "INHIBITION, %": -8.7
  },
  {
    "compound": "CCC1(CO)CCCN(C(=O)c2cc(COc3cccc(F)c3)[nH]n2)C1 (stereo unspecified)",
    "INHIBITION, %": 20.9
  },
  {
    "compound": "CCc1nnc(CN2CCc3cnc(C)nc3C2)o1",
    "INHIBITION, %": -36.6
  },
  {
    "compound": "CCN1C(=O)CCC12CCC(NC(=O)c1cc(C)on1)CC2 (stereo unspecified)",
    "INHIBITION, %": -45.5
  },
  {
    "compound": "Cc1ccc(C(=O)Nc2cn[nH]c2)cc1F",
    "INHIBITION, %": 0.5
  },
  {
    "compound": "COCCNC(=O)c1cc(-c2ccc3c(c2)CCO3)n[nH]1",
    "INHIBITION, %": -18.9
  },
  {
    "compound": "CS(=O)(=O)CCn1ccc(NC(=O)Cc2cccc(Cl)c2)n1",
    "INHIBITION, %": 16.5
  }
]
